Measured Bmax by item
Biological target: T1, huNav1.7α (human Nav1.7 alpha subunit, expressed without β subunits) (human, UniProt Q15858 1-1988)
T1 construct: also called HEK293 human Nav1.7α; HEKa Nav1.7α
Assay: binding FACS, HEKa cells
Express your answer in %, writing the number without its unit.

# example entries with known answers
binder="F010301644 (VHH, also called F0103387G05(L11V, A14P, H37Y, N82bS, N83R, V89L, R105Q)) VHH: EVQLVESGGGVVQPGGSLRLSCDASGRILRIGYMRWYRQGAGKQREFVARITDDSATDYADSVKGRFTISRDNAKNTVYLQMNSLRPEDTALYYCEALVTASVRGGSIHSGTYWGQGTLVTVSS" property_measured=Bmax assay_result=100
binder="F010302391 (VHH, also called F0103387G05(L11V, A14P, D23A, H37Y, G40A, A41P, D53G, D54G, D58G, N82bS, N83R, V89L, R105Q)-FLAG3-HIS6) VHH: EVQLVESGGGVVQPGGSLRLSCAASGRILRIGYMRWYRQAPGKQREFVARITGGSATGYADSVKGRFTISRDNAKNTVYLQMNSLRPEDTALYYCEALVTASVRGGSIHSGTYWGQGTLVTVSS" property_measured=Bmax assay_result=100
binder="F010301850 (VHH, also called F0103387G05(L11V, A14P, D23A, H37Y, G40A, A41P, D58G, N82bS, N83R, V89L, R105Q)) VHH: EVQLVESGGGVVQPGGSLRLSCAASGRILRIGYMRWYRQAPGKQREFVARITDDSATGYADSVKGRFTISRDNAKNTVYLQMNSLRPEDTALYYCEALVTASVRGGSIHSGTYWGQGTLVTVSS" property_measured=Bmax assay_result=100

// next item, Bmax requested
Problem: Need Bmax, item F010301647 (VHH, also called F0103387G05(L11V, A14P, F47L, N82bS, N83R, V89L, R105Q); F47L) VHH: EVQLVESGGGVVQPGGSLRLSCDASGRILRIGYMRWHRQGAGKQRELVARITDDSATDYADSVKGRFTISRDNAKNTVYLQMNSLRPEDTALYYCEALVTASVRGGSIHSGTYWGQGTLVTVSS
Result: 75
